SYSTEM UNDER TEST: Solute carrier family 15 member 1 (Mus musculus)
Sequence (Q9JIP7 whole entry): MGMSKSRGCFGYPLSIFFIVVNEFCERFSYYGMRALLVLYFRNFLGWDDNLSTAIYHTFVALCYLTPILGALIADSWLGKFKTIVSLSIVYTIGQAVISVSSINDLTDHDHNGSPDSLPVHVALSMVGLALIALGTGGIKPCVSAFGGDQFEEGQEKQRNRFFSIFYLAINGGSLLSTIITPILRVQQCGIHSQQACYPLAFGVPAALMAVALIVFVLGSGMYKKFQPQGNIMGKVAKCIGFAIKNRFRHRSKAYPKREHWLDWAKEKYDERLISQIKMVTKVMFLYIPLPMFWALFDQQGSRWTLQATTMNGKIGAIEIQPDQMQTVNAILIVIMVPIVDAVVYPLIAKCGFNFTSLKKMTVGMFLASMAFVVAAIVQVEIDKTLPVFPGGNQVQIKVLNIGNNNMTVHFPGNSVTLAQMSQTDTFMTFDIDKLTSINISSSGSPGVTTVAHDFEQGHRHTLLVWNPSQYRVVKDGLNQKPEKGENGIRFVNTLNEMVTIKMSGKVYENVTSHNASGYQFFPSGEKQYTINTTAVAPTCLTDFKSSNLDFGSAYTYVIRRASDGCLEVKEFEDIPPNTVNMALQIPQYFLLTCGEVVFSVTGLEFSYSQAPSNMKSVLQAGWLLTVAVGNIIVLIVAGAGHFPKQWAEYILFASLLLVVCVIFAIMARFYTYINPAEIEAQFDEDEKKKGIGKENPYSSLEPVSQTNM
ASSAY COMMENT: Inhibition of mouse recombinant PEPT1 expressed in Pichia pastoris GS115 assessed as [3H]GlySar uptake after 30s by dual-channel liquid scintillation counting analysis
MEASURED METRIC: IC50 (mM)

[
  {
    "COMPOUND": "CCOC(=O)C1=C[C@@H](OC(CC)CC)[C@H](NC(C)=O)[C@@H](N)C1.O=P(O)(O)O [OSELTAMIVIR PHOSPHATE]",
    "TEST VALUE": 10.7
  }
]

Cited source: ChEMBL document CHEMBL3526053
